Source listed as patent US20250368734A1.

Kindly supply the reported MFI values for the records listed here.
# TARGET OR SYSTEM: T1, human GPRC5D (human, UniProt Q9NZD1 1-345)
# T1 construct: whole, on cells; also called hGPRC5D; G-protein coupled receptor family C group 5 member D
# T1 sequence (Q9NZD1 whole entry): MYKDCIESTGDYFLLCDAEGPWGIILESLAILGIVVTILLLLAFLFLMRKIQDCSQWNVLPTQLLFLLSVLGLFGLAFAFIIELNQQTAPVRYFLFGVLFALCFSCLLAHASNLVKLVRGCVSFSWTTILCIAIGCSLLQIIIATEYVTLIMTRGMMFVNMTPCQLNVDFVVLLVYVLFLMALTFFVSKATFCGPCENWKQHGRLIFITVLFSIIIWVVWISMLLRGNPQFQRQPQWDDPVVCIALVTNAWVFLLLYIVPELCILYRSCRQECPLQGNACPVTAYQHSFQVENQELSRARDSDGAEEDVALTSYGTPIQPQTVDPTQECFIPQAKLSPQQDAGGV
# METHOD SUMMARY: FACS, OPM-2 cells
One number for each entry.

Below are worked cases with known answers.
{"BINDER": "83A9B8 (antibody, V domains shown, Mouse monoclonal antibody from hybridoma subclone) VH: EVQLQQSGPELVKPGASVKMSCKASGYTFSNYVIHWVKQKPGQGLEWIGYFNPYNDGSKYNEKFKGKATLTSDKSSSTAYMELSSLTSEDSAVYYCARGGVRRYFDVWGAGTTVTVSS VL: DIQMTQSPSSLSASLGERVSLTCRASQDIGDNLNWLQQEPDGTIKRLIYATFSLDSGVPKRFSGSRSGSVYSLTISRLESEDFVDYFCLHYASFPYTFGGGTKLEIK", "MFI": 824}
{"BINDER": "110B4H5 (antibody, V domains shown, Mouse monoclonal antibody from hybridoma subclone) VH: EVQLQQSGPELVKPGASVKMSCKASGYTFTFYIMHWVKQKPGQGPEWIGYINPYNDGTKYNAKFKGKATLSSDRSSSTAYMELSSLTSEDSAVYYCARGGVRRYFDVWGAGTPVTVSS VL: DIQMTQSPSSLSASLGERVSLTCRSSQDIGSNLNWLQQEPDGTIKRLIYATFSLDSGVPKRFSGSRSGSHYSLTISSLESEDFVVYYCLQYGSFPYTFGGGTKLEIK", "MFI": 894}

Query binder follows.
Look up MFI for this binder: 96C9E7 (antibody, V domains shown, Mouse monoclonal antibody from hybridoma subclone) VH: EVQLQQSGPELVKPGASVKMSCKASGYTFTYYILHWVKQKPGQGLEWIGYFNPYNDGNKFNERFRGKATLTSDKSSSTAYMELNSLTSEDSAVYFCARGGVRRYFDVWGAGTTVTVSS VL: DIQMTQSPSSLSASLGERVSLTCRASQDIGSNLNWLQQEPDGTIKRLISATFSLDSGVPKRFSGSRSGSDYSLTISSLESEDFVNYYCLQYASFPYTFGGGTKLEIK
1930
